Origin of the recorded values: the supplement of paper PMC12532568

test system: Danio rerio larvae Tg(actc1b:ZsGreen-LC3), 3 dpf; test: LC3 puncta relative area vs vehicle (mean) (log2 fold change); higher = more autophagy; details: NH4Cl: + NH4Cl; 10 µM; treatment time 16 h
Parameter threshold = 0.4. Response is true (1) when LC3 puncta (log2) meets or exceeds it, else false (0).

Solved cases below.
Ask: Test whether the compound O=C(O)CC(O)C(=O)O (centres undefined) [Malic acid] records LC3 puncta (log2) of 0.4 or higher.
Result: false (0)

Ask: Test whether the compound N[C@@H](CCC(=O)O)C(=O)O [L-glutamic acid] records LC3 puncta (log2) of 0.4 or higher.
Result: true (1)

Ask: Test whether the compound C[n+]1cccc(C(=O)[O-])c1 [Trigonelline] records LC3 puncta (log2) of 0.4 or higher.
Result: false (0)

Ask: Test whether the compound Cc1ccc(C(C)C)cc1O [Carvacrol] records LC3 puncta (log2) of 0.4 or higher.
Result: true (1)

Ask: Test whether the compound CCCCCC=CCC=CCCCCCCCC(=O)O [Linoaleic acid] records LC3 puncta (log2) of 0.4 or higher.
Result: true (1)

Ask: Test whether the compound N[C@H]1C(O)O[C@H](CO)[C@@H](O)[C@@H]1O (stereo partly drawn) [D-glucosamine] records LC3 puncta (log2) of 0.4 or higher.
Result: false (0)

***
Ask: Test whether the compound NC(=O)c1ccc[n+]([C@@H]2O[C@H](CO)[C@@H](O)[C@H]2O)c1 [Nicotinamide riboside chloride] records LC3 puncta (log2) of 0.4 or higher.
Result: true (1)

Ask: Test whether the compound CC(O)CC(=O)O (centres undefined) [3-Hydroxybutyrate] records LC3 puncta (log2) of 0.4 or higher.
Result: false (0)

Ask: Test whether the compound O=C(O)c1ccccc1 [Benzoic acid] records LC3 puncta (log2) of 0.4 or higher.
Result: false (0)

====

// reported LC3 puncta (log2) per item
tested on: Danio rerio larvae Tg(actc1b:ZsGreen-LC3), 3 dpf; experiment: LC3 puncta relative area vs vehicle (mean) (log2 fold change); higher = more autophagy; conditions: NH4Cl: + NH4Cl; 10 µM; treatment time 16 h
Structures can show the parent of a compound that is named as a salt.
Form: value (number only, do not type unit).

Illustrative cases are given below, each with its answer.
Ask: Read off the recorded LC3 puncta (log2) for C[N+](C)(C)CCO.C[N+](C)(C)CCO.C[N+](C)(C)CCO.O=P([O-])([O-])[O-] [Tricholine phosphate]
Result: 0.7

Ask: Read off the recorded LC3 puncta (log2) for O=c1oc2c(O)c(O)cc3c(=O)oc4c(O)c(O)cc1c4c23
Result: 0.705

Ask: Read off the recorded LC3 puncta (log2) for CC(=O)OC/C=C(C)/C=C/C=C(C)/C=C/C1=C(C)CCCC1(C)C [Retinol acetate]
Result: 0.716

Ask: Read off the recorded LC3 puncta (log2) for O=C(O)c1cccnc1
Result: 0.718

Ask: Read off the recorded LC3 puncta (log2) for CCCCCCCCCCCCCCCCCC(=O)O
Result: 0.718

Ask: Read off the recorded LC3 puncta (log2) for O=C(O)C=CC(=O)O
Result: 0.693

***
Ask: Read off the recorded LC3 puncta (log2) for OCC(O)CO
Result: 0.468

Ask: Read off the recorded LC3 puncta (log2) for O=C1C[C@H](O)[C@@H](CO)O1
Result: 0.749

Ask: Read off the recorded LC3 puncta (log2) for O=C(O)CC(O)(CC(=O)O)C(=O)O
Result: 0.486

Ask: Read off the recorded LC3 puncta (log2) for CC(=O)CC(=O)O [Lithium acetoacetate]
Result: 0.433

Ask: Read off the recorded LC3 puncta (log2) for C[C@@H](O)CCO [(R)-1,3-Butylene Glycol]
Result: 0.22

Ask: Read off the recorded LC3 puncta (log2) for CC(O)CC(=O)O (racemic) [DL-ß-Hydroxybutyric acid sodium salt]
Result: -0.181

Ask: Read off the recorded LC3 puncta (log2) for NC(=O)c1ccc[n+]([C@@H]2O[C@H](COP(=O)([O-])O)[C@@H](O)[C@H]2O)c1 [Nicotinamide mononucleotide]
Result: 1.01

Ask: Read off the recorded LC3 puncta (log2) for CCCCCCCC(=O)O
Result: 0.0521

Ask: Read off the recorded LC3 puncta (log2) for CCCCCCCC/C=C\CCCCCCCCCCCCCC(=O)O
Result: 0.639

Ask: Read off the recorded LC3 puncta (log2) for Oc1cc(O)c2c(c1)O[C@H](c1ccc(O)c(O)c1)[C@H](O)C2 [(-)-Epicatechin]
Result: 0.954
